Measured cAMP release, % activity with respect to control, at 10 µM of individual entries
- System: human GLP-1 receptor (human, UniProt P43220 24-463)
- Protocol: cell-based or functional assay
Where no end group is shown, it is not given here. [ ]: non-standard residue; d: D form. αMePhe(2,6-F2) = C[C@](N)(Cc1c(F)cccc1F)C(=O)O; αMeBip(OMe) = alpha-methylated Bip(OMe); hhPhe = N[C@@H](CCCc1ccccc1)C(=O)O; αMeAPPA = not defined here; αMeS = C[C@](N)(CO)C(=O)O; Ac5c = NC1(C(=O)O)CCCC1

These solved cases illustrate the format of a correct answer.
Binder	Assay value
VHSQGT[αMePhe(2,6-F2)]T[αMeS]D[αMeBip(OMe)][hhPhe]-NH2 [Seq. ID. No. 49]	98 % of control
VHSEGT[αMePhe(2,6-F2)]T[αMeS]D[αMeBip(OMe)][αMeAPPA] (not fully specified (C-terminus); reading uncertain) [Seq. ID. No. 177]	99 % of control

Consider the additional binder presented here.
// VH[Ac5c]QGTFTSD[αMeBip(OMe)][hhPhe] (not fully specified (C-terminus)) [Seq. ID. No. 9] : cAMP release, % activity with respect to control, at 10 µM value = 99 % of control
